B1: Tudor domain-containing protein 3, residues 554 to 611; numbered along this chain, Q9H7E2 (parent)
chain: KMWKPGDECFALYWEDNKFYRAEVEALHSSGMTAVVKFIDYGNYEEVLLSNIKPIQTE

Variants of: B1
Test: abundance fitness (aPCA) (normalised: wild type 0, dead -1); higher = more abundant; growth selection in yeast, the domain comes from the species named
Details: Homo sapiens
# abundance fitness per entry
Response field accepts a number only; no unit should be typed.

Please review the following examples before continuing.
Sequence Change: K18V
abundance fitness: -0.255

Sequence Change: E46M
abundance fitness: -0.342

Sequence Change: A26T
abundance fitness: 0.109

Sequence Change: Y13F
abundance fitness: 0.065

Sequence Change: V24E
abundance fitness: -1.04

Form field: reported abundance fitness of P54R
-0.17

Form field: reported abundance fitness of A26W
-0.195

Form field: reported abundance fitness of P54H
-0.181

Form field: reported abundance fitness of W14M
0.066

Form field: reported abundance fitness of Y44A
-0.065

Form field: reported abundance fitness of T57G
0.029
